Every entry's value here was drawn from ChEMBL document CHEMBL1201862.

test system: OVCAR-8; experiment: NCI tumour cell line growth inhibition, 48 h
Activity calls are given as the source filed them. Rule as the data show it: active = GI50 up to about 1.1 µM and inactive = higher.

{"Compound": "Cc1ccc(C(=O)O)c(/C=C2\\Cc3ccc(C)cc3C2=O)c1", "Assay System": "OVCAR-8", "GI50": "61.5 µM (inactive)"}
{"Compound": "COC(OC)C1OC(CO)C(n2cc(C)c(=O)[nH]c2=O)C1O (stereo not given)", "Assay System": "OVCAR-8", "GI50": "> 100 µM (inactive)"}
{"Compound": "COC(=O)CCCc1c(-c2[nH]c3ccccc3c2CCCC(=O)OC)[nH]c2ccccc12", "Assay System": "OVCAR-8", "GI50": "> 100 µM (inactive)"}
{"Compound": "CC(C)CC(NC(=O)C(Cc1ccccc1)NC(=O)[C@H]1CC[C@H](NC(=O)C(Cc2ccc(OC(C)(C)C)cc2)NC(=O)OC(C)(C)C)C1)C(N)=O (stereo not given in full)", "Assay System": "OVCAR-8", "GI50": "18.4 µM (inactive)"}
{"Compound": "Cc1ncc([N+](=O)[O-])n1CCNS(=O)(=O)CCCn1ccnc1[N+](=O)[O-]", "Assay System": "OVCAR-8", "GI50": "> 100 µM (inactive)"}
{"Compound": "Cn1c(=O)c2[nH]c(/N=N\\n3ccc4ccccc43)nc2n(C)c1=O", "Assay System": "OVCAR-8", "GI50": "> 100 µM (inactive)"}
{"Compound": "N#Cc1ccc(Nc2cnc3cc(N)ccc3n2)cc1", "Assay System": "OVCAR-8", "GI50": "> 100 µM (inactive)"}
{"Compound": "C/C(=C\\CBr)CCC(Br)C(C)(C)Br (stereo not given)", "Assay System": "OVCAR-8", "GI50": "> 100 µM (inactive)"}
{"Compound": "CCOCN/C(N)=N\\C#N", "Assay System": "OVCAR-8", "GI50": "> 100 µM (inactive)"}
{"Compound": "COc1ccc2nc(NC(=O)C(=O)C(C#N)c3ccc(CC#N)cc3)sc2c1 (stereo not given)", "Assay System": "OVCAR-8", "GI50": "> 100 µM (inactive)"}

* * *

system: HCC 2998; test: NCI tumour cell line growth inhibition, 48 h
The source made the active and inactive calls. Cut-off read from the data, not from the text of the source: active = GI50 up to about 1.1 µM and inactive = higher. Peptide text beside a SMILES is read from it. * marks the point of attachment. Cbz = O=C(OCc1ccccc1)*; NHNH2 = NN*
Outcomes: active, inactive

{"Compound": "Cn1c(=O)cc(/N=N\\c2ccc(Cl)c(Cl)c2)[nH]c1=O", "Group Label": "inactive"}
{"Compound": "COc1cc([C@@H]2c3[nH]c4ccccc4c3C(Nc3ccc([N+](=O)[O-])cc3)[C@H]3COC(=O)N23)cc(OC)c1O (stereo partly drawn)", "Group Label": "active"}
{"Compound": "Cc1cc(N(CCC#N)CCC#N)ccc1/C=C1N=C(/C=C\\c2ccccc2)OC\\1=O", "Group Label": "inactive"}
{"Compound": "COC(OC)C1OC(CO)C(n2cc(C)c(=O)[nH]c2=O)C1O (stereo not drawn)", "Group Label": "inactive"}
{"Compound": "COC(=O)NC(Nc1ccccn1)(C(F)(F)F)C(F)(F)F", "Group Label": "inactive"}
{"Compound": "COC(=O)CC(NC(=O)OCc1ccccc1)C(=O)NC(CC(=O)OC)C(=O)NC(CC(=O)OC)C(=O)NC(CC(=O)OC)C(=O)NC(CC(=O)OC)C(=O)NC(CC(=O)OC)C(=O)NN (stereo not drawn) (Cbz-D(OMe)D(OMe)D(OMe)D(OMe)D(OMe)D(OMe)-NHNH2; configuration not given here)", "Group Label": "inactive"}
{"Compound": "CCOC(=O)c1cc(OC(=O)CC)c2c(OC)ccc(OC)c2c1", "Group Label": "inactive"}
{"Compound": "CC(=O)Nc1ccc(CNc2cc(=O)n(C)c(=O)[nH]2)cc1", "Group Label": "inactive"}
{"Compound": "CCOC(=O)NC(C(F)(F)F)(C(F)(F)F)P(=O)(OCC(C)C)OCC(C)C", "Group Label": "inactive"}
{"Compound": "CC1=NN(c2ccc(S(=O)(=O)O)cc2)C2(C1)SCC(=O)N2c1nc2ccccc2s1 (stereo not drawn)", "Group Label": "inactive"}
{"Compound": "COC(=O)CCc1cc(OC)c2c(c1)[C@H](C(=O)OC)[C@@H](c1ccc(O)c(OC)c1)O2", "Group Label": "inactive"}
{"Compound": "CN(C(=O)C1(C(=O)C=[N+]=[N-])CC1)c1ccccc1", "Group Label": "inactive"}
{"Compound": "CC1(C)N=C(N)N=C(N)N1c1cccc(Cl)c1", "Group Label": "inactive"}
{"Compound": "OCCN(CCO)c1ncnc2c1sc(=S)n2-c1ccccc1", "Group Label": "inactive"}
{"Compound": "COc1cc(OC)c2c(=O)c(OC)c(-c3ccc4c(c3)OCO4)oc2c1", "Group Label": "inactive"}
{"Compound": "CC1=CC(=O)[C@@H](O)[C@]2(C)[C@H]3[C@@]4(O)OC[C@]35[C@H]([C@@H](C)[C@H]4O)[C@@H](O)C(=O)O[C@@H]5C[C@@H]12", "Group Label": "active"}
{"Compound": "CN(C)c1ccc(C=c2c3cc(O)ccc3n3c2cc(-c2ccccc2)[n+]3C)cc1", "Group Label": "inactive"}
{"Compound": "COC(=O)[C@H](Cc1ccccc1)NC(=O)c1ccc(CNC(=O)/C=C/c2cccc(Oc3ccccc3)c2)cc1", "Group Label": "inactive"}

* * *

tested on: HOP-92; experiment: NCI tumour cell line growth inhibition, 48 h
The source made the active and inactive calls. Cut-off read from the data, not from the text of the source: active = GI50 up to about 1.1 µM and inactive = higher.

{"Compound": "O=C1OCC2OC(=O)c3cc(O)c(O)c(O)c3-c3c(O)c(O)c(O)c4c3C(=O)OC(C2OC(=O)c2cc(O)c(O)c(O)c2-c2c1cc(O)c(O)c2O)C1OC(=O)C2C4=C(O)C(=O)C23Oc2cc(O)c4c(c2[C@H]13)O[C@H](c1ccc(O)c(O)c1)[C@@H](O)C4 (stereo partly drawn)", "GI50": "25.9 µM (inactive)"}
{"Compound": "CCCC/C=C1\\CCC(CN2CCCC2)C1=O (stereo not drawn)", "GI50": "12.1 µM (inactive)"}
{"Compound": "CC(C)CC(NC(=O)C(Cc1ccccc1)NC(=O)[C@H]1CC[C@H](NC(=O)C(Cc2ccc(OC(C)(C)C)cc2)NC(=O)OC(C)(C)C)C1)C(N)=O (stereo partly drawn)", "GI50": "23.8 µM (inactive)"}

* * *

system: MDA-MB-435; assay: NCI tumour cell line growth inhibition, 48 h
The source made the active and inactive calls. Cut-off read from the data, not from the text of the source: active = GI50 up to about 1.1 µM and inactive = higher.

{"Compound": "COC(=O)NC(Nc1ccccn1)(C(F)(F)F)C(F)(F)F", "Assay System": "MDA-MB-435", "GI50": "> 100 µM (inactive)"}
{"Compound": "COC(=O)CCc1cc(OC)c2c(c1)[C@H](C(=O)OC)[C@@H](c1ccc(O)c(OC)c1)O2", "Assay System": "MDA-MB-435", "GI50": "15.1 µM (inactive)"}
{"Compound": "O=[N+]([O-])c1c(F)c(F)c2c(c1F)N(CCCCCl)c1ccccc1S2", "Assay System": "MDA-MB-435", "GI50": "7.71 µM (inactive)"}
{"Compound": "COc1ccc2cc(NC(=O)N/N=C\\c3ccc([N+](=O)[O-])cc3)ccc2c1", "Assay System": "MDA-MB-435", "GI50": "69 µM (inactive)"}
{"Compound": "C=C1[C@H](OCC(C)C)[C@@H](O)[C@@H](OC(=O)c2cccnc2)C(C)(C)/C=C/[C@H](C)[C@H](OC(C)=O)[C@@]2(O)C[C@@](C)(OC(C)=O)[C@H](OC(=O)c3ccccc3)[C@@H]2[C@H]1OC(C)=O", "Assay System": "MDA-MB-435", "GI50": "0.167 µM (active)"}
{"Compound": "N=C(N)NS(=O)(=O)c1ccc(NCc2cccc3c(=O)c4ccc(Cl)cc4oc23)cc1", "Assay System": "MDA-MB-435", "GI50": "5.04 µM (inactive)"}
{"Compound": "CC1=C(O)C(=O)c2ccccc2C1=O", "Assay System": "MDA-MB-435", "GI50": "52.6 µM (inactive)"}
{"Compound": "C(=C\\c1ccccc1)/Cn1nc(-c2ccccc2)nc1-c1cnccn1", "Assay System": "MDA-MB-435", "GI50": "> 100 µM (inactive)"}
{"Compound": "Cc1ccc(/N=N/c2c(O)ccc3ccccc23)cc1", "Assay System": "MDA-MB-435", "GI50": "> 100 µM (inactive)"}
{"Compound": "CN1CN(c2ccccc2)C2(CCN(C3Nc4ccccc4O3)CC2)C1=O (stereo not given)", "Assay System": "MDA-MB-435", "GI50": "19 µM (inactive)"}

* * *

tested on: MDA-MB-231; experiment: NCI tumour cell line growth inhibition, 48 h
Calls of active or inactive are those of the source. No stated cut-off is given here; in the data, active = GI50 up to about 1.1 µM and inactive = higher.
Documented GI50 across a set of compounds
Quantity Kind: GI50

{"Compound": "CC(=O)OC1CCC2(C)C(=CCC3C4CCC5(OC6CC(C)CN(C(C)=O)C6C5C)C(C)=C4C(=O)C32)C1 (stereo unspecified)", "Experimental Result": "17.2 µM (inactive)"}
{"Compound": "C/C(=C\\CNc1ncnc2c1ncn2CCC(=O)OC(C)(C)C)CO", "Experimental Result": "> 100 µM (inactive)"}
{"Compound": "O=[N+]([O-])c1ccc(-c2nn3c(C45CC6CC(CC(C6)C4)C5)nnc3s2)c(Cl)c1", "Experimental Result": "> 100 µM (inactive)"}
{"Compound": "CC1=C(O)C(=O)c2ccccc2C1=O", "Experimental Result": "> 100 µM (inactive)"}
{"Compound": "C/C(=C\\CBr)CCC(Br)C(C)(C)Br (stereo unspecified)", "Experimental Result": "> 100 µM (inactive)"}
{"Compound": "Cn1c(=O)c2c(nc3[nH]c(=O)c(Br)cn32)n(C)c1=O", "Experimental Result": "> 100 µM (inactive)"}
{"Compound": "CC(NC(=O)C(N)Cc1ccc(O)cn1)C(=O)O (stereo unspecified)", "Experimental Result": "> 100 µM (inactive)"}
{"Compound": "Cn1c(=O)cc(/N=N\\c2ccc(Cl)c(Cl)c2)[nH]c1=O", "Experimental Result": "24.8 µM (inactive)"}
{"Compound": "Cc1occc1/C(S)=N\\c1ccc(Cl)c(C(=O)OCC(F)(F)F)c1", "Experimental Result": "18 µM (inactive)"}
{"Compound": "O=C(O)CCNc1ccccc1C(=O)O", "Experimental Result": "> 100 µM (inactive)"}
{"Compound": "O=C1Nc2ccc(S(=O)(=O)O)cc2/C1=C1/Nc2ccc(Br)cc2C1=O", "Experimental Result": "> 100 µM (inactive)"}
{"Compound": "NN/C(=N\\S(=O)(=O)c1ccc(-c2ccccn2)s1)Nc1ccc(Cl)cc1", "Experimental Result": "> 100 µM (inactive)"}
{"Compound": "CCC(CCC(C)C1CCC2C3CC=C4CC(OC5OC(CO)C(O)C(O)C5O)CCC4(C)C3CCC12C)C(C)C (stereo unspecified)", "Experimental Result": "> 100 µM (inactive)"}
{"Compound": "COc1cc([C@@H]2c3cc(O)c(OC)cc3C=C(C(N)=O)[C@H]2C(N)=O)ccc1O", "Experimental Result": "> 100 µM (inactive)"}
{"Compound": "C[C@@H]1CCC2[C@@H](C)[C@@H](OCCO[C@H]3OC4O[C@@]5(C)CCC6[C@H](C)CCC([C@H]3C)[C@@]46OO5)OC3O[C@@]4(C)CCC1[C@]32OO4 (stereo partly specified)", "Experimental Result": "2.21 µM (inactive)"}
{"Compound": "CCN(CC)c1nc(N(C)C)c2ccccc2n1", "Experimental Result": "72.4 µM (inactive)"}
{"Compound": "COC(=O)Cc1cccc2c1CCC2=O", "Experimental Result": "> 100 µM (inactive)"}
{"Compound": "COc1ccc(CN2C(=O)C(=O)N(C)C2=O)c2ccccc12", "Experimental Result": "> 10 µM (inactive)"}
{"Compound": "O=C(O)CNC(=O)C(CSC(=O)OCC1c2ccccc2-c2ccccc21)NC(=O)CCC(NC(=O)OCC1c2ccccc2-c2ccccc21)C(=O)O (stereo unspecified)", "Experimental Result": "17.9 µM (inactive)"}
{"Compound": "CCc1nc(N)nc(N)c1-c1ccc2c(c1)nnn2CCc1ccccc1", "Experimental Result": "26.1 µM (inactive)"}
{"Compound": "CC(=O)Nc1ccc(CNc2cc(=O)n(C)c(=O)[nH]2)cc1", "Experimental Result": "> 100 µM (inactive)"}
